pIC50: −log10 of the molar value.
Record: compiled pIC50 on Cytochrome P450 1A2 (Homo sapiens, UniProt P05177) from multiple reports.
Sequence (P05177 whole entry): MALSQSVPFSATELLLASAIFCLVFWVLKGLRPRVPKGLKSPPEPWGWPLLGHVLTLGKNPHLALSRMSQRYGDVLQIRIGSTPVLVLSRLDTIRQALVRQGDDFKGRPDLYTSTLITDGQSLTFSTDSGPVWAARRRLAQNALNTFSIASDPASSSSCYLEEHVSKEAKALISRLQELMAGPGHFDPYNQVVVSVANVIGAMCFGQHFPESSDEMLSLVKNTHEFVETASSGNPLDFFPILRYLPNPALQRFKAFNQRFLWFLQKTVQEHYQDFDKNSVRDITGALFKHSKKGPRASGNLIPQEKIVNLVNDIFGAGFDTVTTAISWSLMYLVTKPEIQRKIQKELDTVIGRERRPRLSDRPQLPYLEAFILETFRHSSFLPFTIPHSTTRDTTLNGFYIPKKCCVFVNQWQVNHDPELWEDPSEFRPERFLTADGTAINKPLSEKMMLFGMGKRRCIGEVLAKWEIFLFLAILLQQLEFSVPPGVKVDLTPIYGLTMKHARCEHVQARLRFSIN

- COMPOUND: "CN(CC(O)(CNC(=O)c1cnn(-c2ccc(F)cc2)c1N)C(F)(F)F)C(=O)c1c(F)cccc1F (racemic)"
  EXPERIMENTAL READOUT: "pIC50"
  VALUE OBSERVED: 4.00
- COMPOUND: "CC(=O)NCC[C@H](NC(=O)N(C)Cc1csc(C(C)C)n1)C(=O)N[C@@H](CC[C@@H](Cc1ccccc1)NC(=O)OCc1cncs1)Cc1ccccc1"
  EXPERIMENTAL READOUT: "pIC50"
  VALUE OBSERVED: "< 4.60"
- COMPOUND: "Cc1cccc(C)c1CNc1nc(-c2cccc(=O)[nH]2)cc2c(C)c(C)[nH]c12"
  EXPERIMENTAL READOUT: "pIC50"
  VALUE OBSERVED: "< 4.00"
- COMPOUND: "Nc1nc2ccc(C(=O)NC(c3ccccc3)c3ccccc3)cc2s1"
  EXPERIMENTAL READOUT: "pIC50"
  VALUE OBSERVED: "< 4.60"
- COMPOUND: "FC(F)(F)c1ccc(Nc2nc(-c3ccccn3)cs2)cc1"
  EXPERIMENTAL READOUT: "pIC50"
  VALUE OBSERVED: "> 7.00"
- COMPOUND: "N=C(N)c1ccc(OCCCCCOc2ccc(C(=N)N)cc2)cc1"
  EXPERIMENTAL READOUT: "pIC50"
  VALUE OBSERVED: "< 4.00"

Report value: pIC50, system: Cytochrome P450 1A2 (Homo sapiens, UniProt P05177), compound: C[C@@H]1CCCN1CCCOc1ccc(C2=NNC(=O)[C@@H]3C[C@H]23)cc1
< 4.52

Report value: pIC50, system: Cytochrome P450 1A2 (Homo sapiens, UniProt P05177), compound: NS(=O)(=O)c1cccc(-c2n[nH]c3ccc(NC(=O)C(c4ccsc4)N4CCCC4)cc23)c1 (racemic)
< 5.00

Report value: pIC50, system: Cytochrome P450 1A2 (Homo sapiens, UniProt P05177), compound: COc1ccc(OC)c2c1c(OC)cc1c(=O)c(O)c(-c3ccccc3F)oc12
7.53

Report value: pIC50, system: Cytochrome P450 1A2 (Homo sapiens, UniProt P05177), compound: Cc1cn(-c2ccc3n(c2=O)CCN(CCOc2ccc(Cl)cc2C(F)(F)F)C3=O)cn1
< 4.52

Report value: pIC50, system: Cytochrome P450 1A2 (Homo sapiens, UniProt P05177), compound: Fc1ccc(Oc2nccc3[nH]ccc23)cc1
< 4.70

Report value: pIC50, system: Cytochrome P450 1A2 (Homo sapiens, UniProt P05177), compound: O[C@@H](CN1c2cccc(-c3cccc(OC(F)(F)F)c3)c2OC[C@@H]1c1cccc(OC(F)(F)C(F)F)c1)C(F)(F)F
< 4.00

Report value: pIC50, system: Cytochrome P450 1A2 (Homo sapiens, UniProt P05177), compound: C[C@@H]1CCCN1CCc1ccc(-c2ccc(=O)n(-c3ccc(F)cc3)n2)cc1
< 4.52

* * *

Record: compiled IC50 on Cytochrome P450 1A2 (Homo sapiens, UniProt P05177) from multiple reports.
IC50 strictly less than 4 µM = yes (1). Otherwise no (0).

Please review the entries below; each comes with its answer.
- MOLECULE: "Cc1ccncc1-c1cccc2c1ncn2-c1cscn1"
  GROUP LABEL: "yes (1)"
- MOLECULE: "C[C@@H]1CCCN1CCCOc1ccc(C2=NNC(=O)C(C)(C)C2)cc1"
  GROUP LABEL: "no (0)"
- MOLECULE: "CCOC1(c2ccccc2)Sc2ccccc2-n2c1noc2=O (centres undefined)"
  GROUP LABEL: "no (0)"
- MOLECULE: "Cc1ccoc1C(=O)Nc1ccc(N2C(=O)c3cccc(F)c3C2=O)c(Cl)c1"
  GROUP LABEL: "no (0)"
- MOLECULE: "CC[C@@H](NC(=O)c1ccc2c(c1)ncn2Cc1ncc(F)cc1F)c1ccccc1"
  GROUP LABEL: "no (0)"

Does the reported IC50 of CC(C)(O)CN1C[C@H](C(=O)Nc2ccc(Cl)cc2)[C@@H](c2ccc(/C=C/C(=O)Nc3ccccc3N)cc2)C1 (racemic) stay below 4 µM?
no (0)

Does the reported IC50 of CC(=O)N1CCC[C@@H](Oc2cc(F)cc(NC(=O)Nc3ccc(C)nc3)c2)C1 stay below 4 µM?
no (0)

Does the reported IC50 of COc1cc(F)c(-c2c(C)nn3c(C(F)(F)F)cc(C)nc23)cc1F stay below 4 µM?
yes (1)

Does the reported IC50 of COc1ccc(/C=C/c2ccccc2)c(OC)c1 stay below 4 µM?
yes (1)

Does the reported IC50 of COc1ccc(C(NC(=O)c2cnc(-c3cccnn3)nc2O)c2ccc(OC)cc2)cc1 stay below 4 µM?
no (0)
